molecular target: APOL1 G2 (Homo sapiens, UniProt O14791, DEL388-389); construct: expressed in transfected cells; host or cells: HEK293 T-REx clonal line stably expressing GCaMP6f (HEK T-REx/GCaMP6f/APOL1 G2 K6.3), doxycycline induced; assay: APOL1-mediated calcium transport (calcium influx) assay, HEK T-REx/GCaMP6f/APOL1 G2 K6.3 cells, FLIPR TETRA; type: cell-based; settings: prevention of calcium influx; geometric mean of at least 2 assay runs; † = average of a technical replicate from a single assay run
Sequence (O14791 with tags, fused parts or gaps DEL388-389): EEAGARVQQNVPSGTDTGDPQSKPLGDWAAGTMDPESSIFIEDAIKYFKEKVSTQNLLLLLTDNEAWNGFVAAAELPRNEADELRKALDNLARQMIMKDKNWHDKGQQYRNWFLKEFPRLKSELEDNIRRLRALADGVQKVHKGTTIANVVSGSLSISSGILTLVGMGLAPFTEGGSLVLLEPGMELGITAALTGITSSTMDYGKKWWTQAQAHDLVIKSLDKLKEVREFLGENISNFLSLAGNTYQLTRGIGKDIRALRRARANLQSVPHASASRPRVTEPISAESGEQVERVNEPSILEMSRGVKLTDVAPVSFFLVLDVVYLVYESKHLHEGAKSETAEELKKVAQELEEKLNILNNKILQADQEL
Binary label based on AC50 with cut-off 900 nM: below gives YES, not below gives NO.

> print(dat)
                                    molecule  cat
 1  CN1C(=O)C2(CCN(CCOc3ccc(C(=O)N4CCS(=O)(=O)CC4)c(C(F)(F)F)c3)CC2)c2cc(C#N)ccc21   NO
 2  [2H]C([2H])([2H])N1C(=O)C2(CCN(CCOc3cnc4c(c3)CCC(=O)N4[C@H]3C[C@@H](O)C3)CC2)c2cc(Cl)ccc21  YES
 3  O=C1Nc2ccc(Cl)cc2C12CCN(CCOc1ccc3nccnc3c1)CC2   NO
 4  CC(C)n1ncc2cc(OCCN3CCC4(CC3)C(=O)Nc3ccc(Cl)cc34)ccc21   NO
 5  CN=S(C)(=O)c1ccc(OCCN2CCC3(CC2)C(=O)Nc2ccc(C#N)cc23)cc1 (single isomer, unassigned) [Compound 151]   NO
 6  C[C@@H](COc1ccc(S(C)(=O)=O)cc1)N1CCC2(CC1)C(=O)Nc1ccccc12 (single isomer, unassigned)  YES
 7  O=C1Nc2ccc(Cl)cc2C12CCN(CCOc1ccc(S(=O)(=O)C3CC3)cc1)CC2  YES
 8  CS(=O)(=O)Nc1ccc(OCCN2CCC3(CC2)C(=O)N(CCO)c2ccc(Cl)cc23)cc1C(F)(F)F  YES
 9  Cc1ccc2c(c1)C1(CCN(CCOc3ccc(S(C)(=O)=O)cc3)CC1)C(=O)N2  YES
10  NC(=O)c1ccc(OCCN2CCC3(CC2)C(=O)Nc2ccc(Cl)cc23)cc1  YES
11  O=C1Nc2ccc(Cl)cc2C12CCN(CCOc1ccc(S(=O)(=O)[C@H]3C[C@@H](O)C3)cc1)CC2   NO
12  CC(C)N1C(=O)CCc2cc(OCCN3CCC4(CC3)C(=O)Nc3ccc(C#N)cc34)ccc21  YES
13  N#Cc1ccc2c(c1)C1(CCN(CCOc3ccc(C(N)=O)c(C(F)F)c3)CC1)C(=O)N2  YES
14  CC(c1ccc(OCCN2CCC3(CC2)C(=O)Nc2ccc(Cl)cc23)cc1)S(C)(=O)=O (centres unmarked) [Compound 38]  YES
15  O=C1CCc2cc(OCCN3CCC4(CC3)C(=O)Nc3ccc(Cl)cc34)cnc2N1C1CC(CO)C1 (centres unmarked)  YES
16  CS(=O)(=O)c1ccc(OCCN2CCC3(CC2)C(=O)Nc2ccc(Cl)cc23)cc1C#N  YES
17  CC(c1ccc(OCCN2CCC3(CC2)C(=O)Nc2ccc(C#N)cc23)cc1)S(C)(=O)=O (centres unmarked) [Compound 133]  YES
18  Cn1ncc2cc(OCCN3CCC4(CC3)C(=O)Nc3ccccc34)ccc21  YES
19  C[C@]1(O)C[C@@H](N2C(=O)C3(CC3)c3cc(OCCN4CCC5(CC4)C(=O)Nc4ccc(Cl)cc45)cnc32)C1  YES
20  CC(C)N1C(=O)Cc2cc(OCCN3CCC4(CC3)C(=O)Nc3ccc(C#N)cc34)ccc21  YES
21  C[C@]1(O)C[C@@H](N2C(=O)CCc3cc(OCCN4CCC5(CC4)C(=O)Nc4ccc(C(F)F)cc45)cnc32)C1  YES
22  CS(=O)(=O)c1ccc(OCCN2CCC3(CC2)C(=O)N(CCO)c2ccc(C#N)cc23)cc1C(F)F  YES
23  C[C@]1(O)C[C@@H](n2ncc3cc(OCCN4CCC5(CC4)C(=O)Nc4ccc(Cl)cc45)cc(C(F)(F)F)c32)C1   NO
24  CS(=O)(=O)C1CN(C(=O)c2ccc(OCCN3CCC4(CC3)C(=O)Nc3ccc(Cl)cc34)cc2F)C1   NO
25  CN(c1c(F)cc(OCCN2CCC3(CC2)C(=O)Nc2ccc(Cl)cc23)cc1F)S(C)(=O)=O  YES
26  CS(=O)(=O)c1ccc(OCCN2CCC3(CC2)C(=O)Nc2ccc(Cl)cc23)cc1C(F)CF (single isomer, unassigned) [Compound 219]  YES
27  C[C@]1(O)C[C@@H](N2C(=O)OCc3cc(OCCN4CCC5(CC4)C(=O)Nc4ccc(Cl)cc45)cnc32)C1  YES
28  C[C@@H](COc1ccc(S(C)(=O)=O)cc1)N1CCC2(CC1)C(=O)Nc1ccc(Cl)cc12 (single isomer, unassigned)   NO
